EXPERIMENT DESCRIPTION: qHTS Assay for Rab9 Promoter Activators; also: nearly all actives have a fitted effect of over 60% in size
CONDITION NOTES: Huh7 Rab9 promoter-luciferase reporter, luminescence, 24 h; series mostly up to 9.22 µM
The whole screen tested about 320,000 compounds, of which about 9,100 (2.8%) were called active. Another 3% or so got no clear call; they are omitted. Calls follow the shape of the dose curve; as a rule, active = well fitted activation curve with a large enough effect; inconclusive = small, poorly fitted or top-dose-only effect; inactive = no such curve, though single readings can be large or run the other way. The list comes from a sample in which actives are over-represented; it also holds close analogues and randomly drawn compounds.
Pick one and only one: active, inactive

Worked examples, 2 compounds total:
COc1cccc(-c2cc(C(=O)N3CCN(c4ccccc4OC)CC3)no2)c1 :: inactive
O=C(Nc1cccnc1Cl)c1cc(-c2ccccc2O)on1 :: inactive

Task: What is the recorded call for this compound in the test? O=C(Nc1ccc2c(c1)OCCO2)C1CCCN(c2ncccn2)C1 (stereo not drawn)
Output: active

Task: What was the test verdict on O=C(CSc1n[nH]c(-c2cccs2)n1)N1CCCCC1 ?
Output: inactive

Task: In this assay, the call recorded for COc1ccccc1C(=O)Nc1ccc(OCC(=O)N2CCCCC2)cc1 was what?
Output: inactive

Task: What outcome does the record of this test show for CCOC(=O)c1c(C)[nH]c(C(=O)OCC(=O)N2CCCC2=O)c1C ?
Output: inactive

Task: Lab log entry: O=C(Nc1ccc2c(c1)OCCO2)C1CCCC1 — outcome as called in the assay?
Output: inactive

Task: Hello, I am checking results. What call was entered for CC(=O)c1ccc(NC(=O)c2cc(-c3cccs3)on2)cc1 ?
Output: inactive

Task: Which outcome did this test record for the compound COc1ccccc1-c1cc(C(=O)N2CCCCC2)no1 ?
Output: active

Task: Please indicate how the test categorized O=C(N/N=C/c1c[nH]c2ccccc12)c1cc2ccccc2o1 .
Output: inactive

Task: Call for entry O=C(c1cc(-c2ccc(F)cc2)on1)N1CCN(c2ccc(F)cc2)CC1 :
Output: inactive

----------
EXPERIMENT DESCRIPTION: qHTS Assay for Rab9 Promoter Activators; also: nearly all actives have a fitted effect of over 60% in size
CONDITION NOTES: Huh7 Rab9 promoter-luciferase reporter, luminescence, 24 h; series mostly up to 9.22 µM
Among all 320,000 compounds or so, about 9,100 (2.8%) were called active. Not shown: some 3% with an inconclusive outcome. The call rests on the fitted dose curve; in most records, active means well fitted activation curve with a large enough effect; inconclusive means small, poorly fitted or top-dose-only effect; inactive means no such curve, though single readings can be large or run the other way. Only a selection was taken, and actives are over-represented in it overall.
Lab note: assign the record to one of active, inactive

Check out these entries, answers already filled in.
C=CCN1CCN(C(=O)CCCc2ccccc2)CC1 :: active
CCOC(=O)c1c(C)[nH]c(C(=O)NCCN2CCOCC2)c1C :: inactive
CN(c1ccccc1)S(=O)(=O)c1cccc(NC(=O)Cc2ccc(Cl)cc2)c1 :: inactive
CC(C)C(=O)Nc1ccc(C(=O)NNC(=O)c2cccs2)cc1 :: inactive
O=C1c2ccccc2C(=O)N1CCC#Cc1ccc2cc(C3(O)CCCCC3)oc(=O)c2c1 :: inactive
COC(=O)Cn1cc(C(=O)c2cccs2)c2ccccc21 :: inactive
O=C(c1cn(-c2ccccc2)nc1-c1cccnc1)N1CCN(S(=O)(=O)c2ccccc2F)CC1 :: inactive
COc1ccc(/C=N/Nc2nc3ccccc3o2)cc1OC :: active

Task: Outcome logged for O=C(OC1CCCCC1=O)c1cccc(S(=O)(=O)NCc2ccccc2)c1 (configuration not stated) in this assay:
Output: inactive

Task: Called result for COc1ccc(-c2cc(C(=O)NCCCN3CCCC3=O)c3ccccc3n2)cc1OC
Output: inactive

Task: Kindly provide the recorded test outcome for the following compound: O=C(Nc1ccc(NC(=O)c2cccs2)cc1)c1ccc2ccccc2c1
Output: inactive

Task: Recorded test outcome, item COc1cc([C@H](Cc2ccccc2)NC(C)=O)oc(=O)c1
Output: inactive

Task: Status in this test for COc1ccc(/C=N/S(=O)(=O)c2ccccc2)cc1OC ?
Output: inactive

Task: Check the results log: what was the call for COc1cccc(CC(=O)Nc2ccc(-c3csc(C)n3)cc2)c1 ?
Output: inactive

Task: Recorded test outcome, item COc1ccccc1P(=O)(c1ccccc1)c1ccccc1NC(C)=O (configuration not stated)
Output: inactive

Task: What did the test return for CCCCCN1CC(O)=C(c2nc(-c3ccc(Cl)cc3)cs2)C1=N ?
Output: inactive

Task: What was the test verdict on CCOc1ccc(/C=N/Nc2nncc(-c3ccccc3)n2)cc1OC ?
Output: inactive

Task: Can you look up the reported call for CSc1ccccc1OCc1cc(C(=O)N2C[C@H]3CC[C@H]2C3)no1 for me?
Output: active

Task: Entry CCc1c(C)nc2cc(C)[nH]n2c1=O : call = ?
Output: inactive

Task: What classification did COC(=O)c1cn(CC(=O)NCc2cccs2)c2ccccc12 end up with in this test?
Output: active

Task: Outcome logged for N#C/C(=C1/CCCN1)c1ccccn1 in this assay:
Output: inactive

Task: Which outcome was assigned to CCOc1cc(CNCc2ccccn2)ccc1OCC(=O)NC(C)(C)C in this test?
Output: inactive

Task: Tell me the assay call for COC(=O)[C@]1(C)CCC[C@@]2(C)C3CC[C@]4(OC(C)=O)C[C@@]3(CCC21)CC4=NO (some centres not stated) please.
Output: inactive

Task: Per the assay record, what outcome was assigned to CCCCN1Cc2c(nc3cc(-c4ccccc4)[nH]n3c2=O)C1=O ?
Output: inactive
